# System: Staphylococcus aureus
# run_description: Antimicrobial activity against Staphylococcus aureus CCM 4516/08 after 24 hrs by microdilution method
# Format: functional
# details: CCM 4516/08, 24 h
Provide the reported MIC of each item.
Answers are plain numbers, in µM.

Some compounds with recorded MIC:
1. CN(C)C(=O)Oc1ccc(Cl)cc1C(=O)Nc1ccc(F)cc1
125
2. CC1(C)S[C@@H]2[C@H](NC(=O)Cc3ccccc3)C(=O)N2[C@H]1C(=O)O
0.98
3. CN(C)C(=O)Oc1ccc(Cl)cc1C(=O)Nc1ccc(Cl)cc1
62.5
4. CN(C)C(=S)Oc1ccc(Cl)cc1C(=O)Nc1ccc(Br)cc1
0.49
5. CN(C)C(=S)Oc1ccc(Cl)cc1C(=O)Nc1ccc(F)cc1
15.6
6. CN(C)C(=S)Oc1ccc(Cl)cc1C(=O)Nc1ccc(C(F)(F)F)cc1
7.81

Here is the next item to consider.
In: Look up and report measured MIC (Staphylococcus aureus) for the following compound: `CN(C)C(=S)Oc1ccc(Cl)cc1C(=O)Nc1ccc(Cl)cc1`
Out: 3.9

###

# Tested on: Mycobacterium tuberculosis
# run_description: Antimycobacterial activity against Mycobacterium tuberculosis H37Rv 331/88 assessed as complete growth inhibition after 21 days
# Type: functional
# details: H37Rv 331/88, 504 h
measured_parameter: MIC

Guide cases for MIC, answers given:
1) O=C(Nc1ccc(Cl)cc1)c1cc(Cl)ccc1O
4 µM
2) O=C(Nc1ccc(Br)cc1)c1cc(Cl)ccc1O
4 µM
3) O=C(Nc1ccc(C(F)(F)F)cc1)c1cc(Cl)ccc1O
2 µM
4) NNC(=O)c1ccncc1
1 µM
5) O=C(Nc1ccccc1)c1ccccc1OC(=O)N(c1ccccc1)c1ccccc1
125 µM

Please give MIC, item by item, for the list that follows.
1. Nc1ccc(C(=O)O)c(O)c1
2. O=C(Nc1ccc(C(F)(F)F)cc1)c1cc(Cl)ccc1OC(=O)N(c1ccccc1)c1ccccc1
3. O=C(O)CC[N+](=O)[O-]
4. CN(C(=O)Oc1ccc(Cl)cc1C(=O)Nc1ccc(Cl)cc1)c1ccccc1
5. CN(C)C(=S)Oc1ccc(Cl)cc1C(=O)Nc1ccc(C(F)(F)F)cc1
6. CN(C)C(=O)Oc1ccc(Cl)cc1C(=O)Nc1ccc(Br)cc1

Out:
62.5 µM
125 µM
> 1000 µM
32 µM
4 µM
16 µM

###

# run_description: Selectivity index, ratio of IC50 for human HepG2 cells to MIC for Mycobacterium tuberculosis H37Rv
# Format: toxicity, cell-based
# details: read-out: Selectivity Index
I'd appreciate it if you marked entries Y when selectivity ratio is lower than 10 and N when it is not.

Record excerpt, results attached:
1. CN(C)C(=O)Oc1ccc(Cl)cc1C(=O)Nc1ccc(F)cc1
N
2. CN(C(=O)Oc1ccc(Cl)cc1C(=O)Nc1ccc(F)cc1)c1ccccc1
Y
3. CN(C)C(=O)Oc1ccccc1C(=O)Nc1ccccc1
Y
4. NNC(=O)c1ccncc1 [ISONIAZID]
N
5. O=C(Nc1ccccc1)c1ccccc1O [SALICYLANILIDE]
Y

In: Is selectivity ratio of `CN(C(=O)Oc1ccccc1C(=O)Nc1ccccc1)c1ccccc1` strictly below 10?
Out: Y

In: Confirm or reject: selectivity ratio of Nc1ccc(C(=O)O)c(O)c1 [AMINOSALICYLIC ACID] lies strictly below 10
Out: N

In: Could you please tell me whether selectivity ratio recorded for `CN(C)C(=S)Oc1ccc(Cl)cc1C(=O)Nc1ccc(F)cc1` is less than 10?
Out: Y

In: Is selectivity ratio strictly under 10 for the entry `CN(C(=O)Oc1ccc(Cl)cc1C(=O)Nc1ccc(Br)cc1)c1ccccc1` ?
Out: N

In: Does the reported selectivity ratio of `O=C(Nc1ccccc1)c1ccccc1OC(=O)N(c1ccccc1)c1ccccc1` stay below 10?
Out: Y

In: In the record for `CN(C(=O)Oc1ccc(Cl)cc1C(=O)Nc1ccc(Cl)cc1)c1ccccc1` , is selectivity ratio less than 10?
Out: Y

In: Input `CN(C)C(=S)Oc1ccc(Cl)cc1C(=O)Nc1ccc(Cl)cc1` ; condition: selectivity ratio strictly below 10. Does it hold?
Out: N

In: A record lists `CN(C)C(=S)Oc1ccc(Cl)cc1C(=O)Nc1ccc(C(F)(F)F)cc1` . Is its selectivity ratio below 10?
Out: N

###

# run_description: Inhibition of Mycobacterium tuberculosis H37Rv isocitrate lyase assessed as glyoxylate phenyl hydrazone formation at 10 uM
measured_parameter: inhibition

Use the examples below as a reference point.
1) O=C(Nc1ccccc1)c1ccccc1OC(=O)N(c1ccccc1)c1ccccc1
8%
2) CN(C)C(=O)Oc1ccc(Cl)cc1C(=O)Nc1ccc(Br)cc1
9%
3) Nc1ccc(C(=O)O)c(O)c1
10%
4) CN(C)C(=O)Oc1ccc(Cl)cc1C(=O)Nc1ccc(Cl)cc1
6%

Now let's try a different one.
In: Return reported inhibition. Input compound: `O=C(Nc1ccc(Br)cc1)c1cc(Cl)ccc1OC(=O)N(c1ccccc1)c1ccccc1`
Out: 19%

###

# Tested on: Mycobacterium kansasii
# run_description: Antimycobacterial activity against clinical isolate Mycobacterium kansasii 6509/96 assessed as complete growth inhibition after 7 days
# Type: functional
# details: 6509/96, 168 h
Please go through the items and note down their MIC.
Answers are plain numbers, in µM.

Consider the following illustrative entries.
1) O=C(Nc1ccc(Cl)cc1)c1cc(Cl)ccc1OC(=O)N(c1ccccc1)c1ccccc1
32
2) CN(C)C(=O)Oc1ccc(Cl)cc1C(=O)Nc1ccc(C(F)(F)F)cc1
250
3) O=C(Nc1ccc(F)cc1)c1cc(Cl)ccc1OC(=O)N(c1ccccc1)c1ccccc1
125
4) CN(C)C(=O)Oc1ccc(Cl)cc1C(=O)Nc1ccc(F)cc1
62.5

In: Report the value of MIC obtained on Mycobacterium kansasii for `CN(C(=O)Oc1ccc(Cl)cc1C(=O)Nc1ccc(Br)cc1)c1ccccc1` .
Out: 32

###

# Test system: Mycobacterium kansasii
# run_description: Antimycobacterial activity against clinical isolate Mycobacterium kansasii 6509/96 assessed as complete growth inhibition after 7 days
# Type: functional
# details: 6509/96, 168 h
Record form. Attribute: MIC. Fill in for each entry.
Answers are plain numbers, in µM.

1) Nc1ccc(C(=O)O)c(O)c1
32
2) O=C(Nc1ccc(C(F)(F)F)cc1)c1cc(Cl)ccc1OC(=O)N(c1ccccc1)c1ccccc1
125
3) CN(C)C(=S)Oc1ccc(Cl)cc1C(=O)Nc1ccc(F)cc1
16
4) CN(C(=O)Oc1ccccc1C(=O)Nc1ccccc1)c1ccccc1
250
5) CN(C)C(=S)Oc1ccc(Cl)cc1C(=O)Nc1ccc(C(F)(F)F)cc1
16
6) O=C(Nc1ccccc1)c1ccccc1O [SALICYLANILIDE]
125
7) CN(C)C(=O)Oc1ccc(Cl)cc1C(=O)Nc1ccc(Cl)cc1
62.5
8) O=C(Nc1ccc(C(F)(F)F)cc1)c1cc(Cl)ccc1O
2
9) CN(C(=O)Oc1ccc(Cl)cc1C(=O)Nc1ccc(F)cc1)c1ccccc1
62.5
10) NNC(=O)c1ccncc1
2

Can you give me MIC for all of these, one by one?
1. CN(C(=O)Oc1ccc(Cl)cc1C(=O)Nc1ccc(Cl)cc1)c1ccccc1
2. CN(C)C(=S)Oc1ccc(Cl)cc1C(=O)Nc1ccc(Br)cc1

Out:
1. 32
2. 16

###

# System: Staphylococcus aureus
# run_description: Antimicrobial activity against methicillin-resistant Staphylococcus aureus H 5996/08 after 48 hrs by microdilution method
# Format: functional
# details: H 5996/08, 48 h
Kindly state MIC for each of the entries shown.

1. CN(C)C(=S)Oc1ccc(Cl)cc1C(=O)Nc1ccc(F)cc1
31.2 µM
2. CN(C)C(=O)Oc1ccc(Cl)cc1C(=O)Nc1ccc(Cl)cc1
125 µM
3. CC1(C)S[C@@H]2[C@H](NC(=O)Cc3ccccc3)C(=O)N2[C@H]1C(=O)O
125 µM
4. CN(C)C(=S)Oc1ccc(Cl)cc1C(=O)Nc1ccc(Br)cc1
0.49 µM
5. CN(C)C(=O)Oc1ccc(Cl)cc1C(=O)Nc1ccc(F)cc1
> 125 µM
6. CN(C)C(=S)Oc1ccc(Cl)cc1C(=O)Nc1ccc(C(F)(F)F)cc1
7.81 µM

Continue with the compound presented below.
In: Return MIC for the following compound: `CN(C)C(=S)Oc1ccc(Cl)cc1C(=O)Nc1ccc(Cl)cc1`
Out: 7.81 µM

###

# run_description: Inhibition of Mycobacterium tuberculosis H37Rv isocitrate lyase assessed as glyoxylate phenyl hydrazone formation at 10 uM
For each of the molecules below, state its inhibition.
One number for each entry, in %.

1. O=C(Nc1ccc(Br)cc1)c1cc(Cl)ccc1O
13
2. CN(C(=O)Oc1ccc(Cl)cc1C(=O)Nc1ccc(Cl)cc1)c1ccccc1
17
3. O=C(Nc1ccc(C(F)(F)F)cc1)c1cc(Cl)ccc1O
6
4. CN(C(=O)Oc1ccc(Cl)cc1C(=O)Nc1ccc(Br)cc1)c1ccccc1
14
5. CN(C(=O)Oc1ccc(Cl)cc1C(=O)Nc1ccc(C(F)(F)F)cc1)c1ccccc1
16

List the reported inhibition of each molecule below.
1. O=C(O)CC[N+](=O)[O-]
2. O=C(Nc1ccc(F)cc1)c1cc(Cl)ccc1O
3. CN(C)C(=S)Oc1ccc(Cl)cc1C(=O)Nc1ccc(F)cc1
4. CN(C(=O)Oc1ccc(Cl)cc1C(=O)Nc1ccc(F)cc1)c1ccccc1
5. O=C(Nc1ccc(C(F)(F)F)cc1)c1cc(Cl)ccc1OC(=O)N(c1ccccc1)c1ccccc1

Out:
[25, 14, 7, 14, 21]

Batch request: inhibition per item, same order as input.
1. O=C(Nc1ccccc1)c1ccccc1O [SALICYLANILIDE]
2. O=C(Nc1ccc(Cl)cc1)c1cc(Cl)ccc1O
3. O=C(Nc1ccc(Cl)cc1)c1cc(Cl)ccc1OC(=O)N(c1ccccc1)c1ccccc1

Out:
1. 9
2. 13
3. 20

Values were extracted from ChEMBL document CHEMBL3352384.
